Reference source for all entries: patent US12139464B2

# TARGET_UNDER_TEST: S. aureus AgrC in group-IV (Staphylococcus aureus)
# PROTOCOL_DETAILS: AgrC inhibition YFP reporter gene assay, S. aureus group-IV (AH1872)
# Format: cell-based
# EXPERIMENTAL_CONDITIONS: read-out: IC50 Group-IV; Table 3, against S. aureus AgrC
pIC50: −log10 of the molar value. Positions of bridges follow the written chain, without caps; N, C: chain ends. Non-standard residues stand in square brackets, D forms with d. Residues, ends and D or L forms follow the SMILES beside them. Phe(4-Cl) = N[C@@H](Cc1ccc(Cl)cc1)C(=O)O; Phe(3-F) = N[C@@H](Cc1cccc(F)c1)C(=O)O; Cha = N[C@@H](CC1CCCCC1)C(=O)O; AEEA = NCCOCCOCC(=O)O; Aoc = NCCCCCCCC(=O)O
VALUE_TYPE: pIC50

COMPOUND | PREFIX_OPERATOR | RESULT_VALUE
CC(=O)N[C@H]1CSC(=O)[C@H](Cc2cccc(F)c2)NC(=O)[C@H](CC2CCCCC2)NC(=O)CCCCCCCNC1=O [n7Cha3fF] (Ac-C[Aoc][Cha][Phe(3-F)]; thioester 1-C) | = | 5.93
CC(=O)N[C@H]1CSC(=O)[C@H](Cc2ccc(Cl)cc2)NC(=O)[C@H](Cc2ccccc2)NC(=O)COCCOCCNC1=O [n7OF4clF] (Ac-C[AEEA]F[Phe(4-Cl)]; thioester 1-C) | < | 5.30
CC(=O)N[C@H]1CSC(=O)[C@H](Cc2ccccc2)NC(=O)[C@H](CC2CCCCC2)NC(=O)COCCOCCNC1=O [n7OChaF] (Ac-C[AEEA][Cha]F; thioester 1-C) | = | 5.97
CC(=O)N[C@H]1CSC(=O)[C@H](Cc2cccc(F)c2)NC(=O)[C@H](Cc2ccccc2)NC(=O)COCCOCCNC1=O [n7OF3fF] (Ac-C[AEEA]F[Phe(3-F)]; thioester 1-C) | < | 5.30
CC(=O)N[C@H]1CSC(=O)[C@H](Cc2ccccc2)NC(=O)[C@H](Cc2ccccc2)NC(=O)COCCOCCNC1=O [n7OFF] (Ac-C[AEEA]FF; thioester 1-C) | = | 5.23
CC(=O)N[C@H]1CSC(=O)[C@H](Cc2cccc(F)c2)NC(=O)[C@H](CC2CCCCC2)NC(=O)COCCOCCNC1=O [n7OCha3fF] (Ac-C[AEEA][Cha][Phe(3-F)]; thioester 1-C) | = | 6.22

* * *

# TARGET_UNDER_TEST: S. aureus AgrC in group-IV (Staphylococcus aureus)
# PROTOCOL_DETAILS: AgrC inhibition YFP reporter gene assay, S. aureus group-IV (AH1872)
# Type: cell-based
# EXPERIMENTAL_CONDITIONS: group-IV; 10 μM where stated; YFP fluorescence relative to 1% DMSO control
Positions of bridges follow the written chain, without caps; N, C: chain ends. Non-standard residues stand in square brackets, D forms with d. Residues, ends and D or L forms follow the SMILES beside them. Dap = NC[CH](N)C(=O)O; Aoc = NCCCCCCCC(=O)O

COMPOUND | AgrC activity, preliminary screening
CC(=O)NC1CNC(=O)C(Cc2ccccc2)NC(=O)C(Cc2ccccc2)NC(=O)CCCCCCCNC1=O (centres unmarked) [n7FF amide] (Ac-[Dap][Aoc]FF; lactam 1-C; configuration not given here) | virtually no inhibition
CC(=O)N[C@H]1CNC(=O)[C@H](Cc2ccccc2)NC(=O)[C@H](Cc2ccccc2)NC(=O)CCCCCCCCNC1=O [n8FF amide] | virtually no inhibition
